# assayExplanation: yeast display, Sf9 membrane polyspecificity reagent, FACS + sequencing; frameworks hold sequencing errors
readoutName: polyreactivity (PSR sort gate)

Please review the following examples before continuing.
[[record]]
querysequence = "QVQLVESGGGLVQSGGSLRLSCAASGSIFDYYAMGWYRQAPGKERELVASINSSGTGTYYADSVKGRFTFSRDNAKNTVSLQVNSMKPEDTAVYYCATRQAVGYSSGRGYGYWGQGTQETVSS"
observed = "low polyreactivity"

[[record]]
querysequence = "QVQLVESGGGLVQAGGSLRLSCAASGSIFGTYAMGWYRQALGKERELVASIRFNGRTFYADSVKGRFTISRDNAKNTVYLQMNSLKPEDTAVYYCAAQTWYGFPNYYWGQGTQVTVSS"
observed = "high polyreactivity"

[[record]]
querysequence = "QVQLVESGRGLVQAGGTLRLSCAASGRIFYWNAMGWYRQAHGKERELVAAISWSGGSTYYADSVKGRFTISRDNAKNTVYLQMNSLKPEDTAVYYCAADGGRRTYYVKYDYWGQGTQVTVSS"
observed = "low polyreactivity"

[[record]]
querysequence = "QVQLVESGGGLVQAGGSLRLSCAASGRTFHKNAMGWYRQAPGQERELVAAISGSGGSTYYADSVKGRFTISRDNAKNTVYLQMNSLKPEDTAVYYCAADSSYYEEDYWGQGNQVTVSS"
observed = "high polyreactivity"


**Query** Return polyreactivity (PSR sort gate) (reported value) for this sequence: QVQLVESGGGLVQAGGSLRLSCAASGSTLWWYDMGWYRQAPGKERELVAAINSGGSTNYADSVKGRFTISRDNAKNTVYLQMNSLKPEDTAVYYCNTDGEVTYDYWGQGTQVTVSS
**Result** low polyreactivity

---

# assayExplanation: yeast display, Sf9 membrane polyspecificity reagent, FACS + sequencing; frameworks hold sequencing errors
readoutName: polyreactivity (PSR sort gate)

// worked examples, polyreactivity (PSR sort gate) included
[[record]]
querysequence = "QFQLVESGGGLVQAGGSLRLSCAASGSTFVYYAMGWYRQAPGKERELVAAITASGGGTYYADSVKGRFTISRDNAKNTVYLQMNSLKPEDTAVYYCAAYLGWGYDYWGQGTQVTVSS"
readoutname = "polyreactivity (PSR sort gate)"
observed = "low polyreactivity"

[[record]]
querysequence = "QVQLVESGGGLVQAGGSLRLSCADSGLIFTANDRGWYRQAPGKERELVADISKSGSSTYYADSVKGRFTISRDNAKNTVYLQMNSLKPEDTAVYYCNADYLTYFTTFDYWGQGTQVTVSS"
readoutname = "polyreactivity (PSR sort gate)"
observed = "low polyreactivity"

[[record]]
querysequence = "QVQLVESGGGLVQAGGSLRLSCAASGGIFDTYAMGWYRQEPGKERELVAAISRRGGNTYYADSVKGRFTISRDNAKNTVYLQMNSLKPEDTAVYYCAAYYHGRMDYWGQGTQVTVSS"
readoutname = "polyreactivity (PSR sort gate)"
observed = "high polyreactivity"

[[record]]
querysequence = "QVQLVESGGGLVQAGGSLRLSCAASGSTFEVNAMGWYRQAPGKERELVASITDGGITNYADSVKVRFTISRDNAKNTVYLQMNSLKPEDTAVYYCAAVGWYYSYYYFWGGYWGQGTQVTVSS"
readoutname = "polyreactivity (PSR sort gate)"
observed = "high polyreactivity"

[[record]]
querysequence = "QVQLVESGGGLVEAGGSLRLSCAASASIFGLNAMGWYRQAPGKEREFVAAISWSDGSTYYADSVKGRFTISRDNAKNTVYLQMNSLKPEDTAVYYCSKATEYYAESDDYDYWGQGTQVTVSS"
readoutname = "polyreactivity (PSR sort gate)"
observed = "low polyreactivity"

[[record]]
querysequence = "QVQLVESGGGLVQAGGSLRLSCAASGSIFVTNAMGWYRQAPGKERELVAAISNSGSSTYYADSVKGRFTISRDNAKNTVYLQMNSLKPEDTAVYYCAADWYGVTGSYYYWGQGTQVTVSS"
readoutname = "polyreactivity (PSR sort gate)"
observed = "high polyreactivity"

[[record]]
querysequence = "QVQLVESGGGLVQAGGSLRLSCAASGSIFYWYAMGWYRQAPGKERELVAGITGRGGSTYYADSVKGRFTISRDNAKNTVYLQMNSLKPEDSAVYYADFVKYGKYYQRYDYWAQGTQVTVSS"
readoutname = "polyreactivity (PSR sort gate)"
observed = "high polyreactivity"

[[record]]
querysequence = "QVQLVESGGRLVQAGGSLRLSCAASGSIFPGNAMGWYRQAPGKDREYVGAISWSGGSTNYADSVKGRFTISRDNAKYTVYLQMNSLKPEDTAVYYCAKRFVRLDPTTQLYGKAYEYWGQGTQVTVSS"
readoutname = "polyreactivity (PSR sort gate)"
observed = "high polyreactivity"

[[record]]
querysequence = "QVRLVESGGGLVQAGRSLRLSCAASGRIFWNYAMGWYRQAPGKERELVATIDKSGGSTRYADSVKGRFTISRDTAKNTVYLQMNSLKPEDTAVYYCAARGPASRGFRGARSGLTFDYWGQGTQVTVSS"
readoutname = "polyreactivity (PSR sort gate)"
observed = "low polyreactivity"

[[record]]
querysequence = "QVQLVESGGGLVQAGGSLRLSCAASGSIFWPYAKGWYRQAPGKERELVAAISSSGTSTYYADSVKGRFTISRDNAKNTVYLQMNSLKPEDTAVYYCAKELFTYPYEYWGQGTQVTVSS"
readoutname = "polyreactivity (PSR sort gate)"
observed = "low polyreactivity"


Next item in the queue.
**Query** Give a short answer stating reported polyreactivity (PSR sort gate) for QVQLVESGGGLVQAGGSLRLSCAASGLTFRYYAMGGYRQAPGKERELDAAITSSGTSTYYADSVKGRFTISRDNAKNTVSLQMNSLKPEDTAVYYCAARYSGGTWSGYNYWGQGTQVTVSS .
**Result** high polyreactivity

---

# assayExplanation: yeast display, Sf9 membrane polyspecificity reagent, FACS + sequencing; frameworks hold sequencing errors
readoutName: polyreactivity (PSR sort gate)

[[record]]
querysequence = "QVQLVESGGGLVQAGGSLRLSCAASGYIFHSYAMGWYRQAPGKERELVAAITSSGGSTYYADSVKGRFTISRDNAKNTVYLQMNSLKPEDTAVYYCAAEYYYVYPYYRSPKFDYWGQGTQVTVSS"
readoutname = "polyreactivity (PSR sort gate)"
observed = "high polyreactivity"

[[record]]
querysequence = "QVQLVESGGGLVQAGGTLRLSCAASGRIFRYNGMGWYRQAPVKERELVAGINWIGGRTYYADSVKGRFTISRDNAKNTVYLQMNSLKPEDTAVYYCAAYWYYIKATTDSDARFDYWGQGTQVTVSS"
readoutname = "polyreactivity (PSR sort gate)"
observed = "high polyreactivity"

[[record]]
querysequence = "QVQLVESGGGLVQAGGSLRLSCAASGITFRRYTMGWYRQAPGKEMELVAAISRIGGSTYYADSVKGRFTISRDNAKNTVYLQMNSLKPEDTAVYYCARAGRVQPGSEDDYWGQGTQVTVSS"
readoutname = "polyreactivity (PSR sort gate)"
observed = "high polyreactivity"

[[record]]
querysequence = "QVQLVESGGGLVQAGGSLRLSCAASGSTFTYYAMGWYRQAPGKERELVAAITGRGGRTYYADSVKGRFTISRDNAKNTVYLQMNSLKPEDTAVYYCARYPSSDTYWTKYDYWGQGTQVTVSS"
readoutname = "polyreactivity (PSR sort gate)"
observed = "high polyreactivity"


---

# assayExplanation: yeast display, Sf9 membrane polyspecificity reagent, FACS + sequencing; frameworks hold sequencing errors
readoutName: polyreactivity (PSR sort gate)

[[record]]
querysequence = "QVQLVESGGGLVQAGGSLRLSCAASGRTFNKYAMGWYRQAPGKERELVAAISTRGGSTYYADSVKGRFTISRDNAKNNVYLQMNSLKPEDTAVYYCAARLTTVGQGFDYWGQGTKVTVSS"
readoutname = "polyreactivity (PSR sort gate)"
observed = "high polyreactivity"

[[record]]
querysequence = "QVQLVESGGGLVQAGGSLRLSCAASGSTFPGNTMGSYRQAPGKERELVAAITWNGGSTYYADSVKGRFTISRDNAKNNVYLQMNRLKPEDTAVYYCATRARVTYYYWGLGTQVTVSS"
readoutname = "polyreactivity (PSR sort gate)"
observed = "high polyreactivity"


---

# assayExplanation: yeast display, Sf9 membrane polyspecificity reagent, FACS + sequencing; frameworks hold sequencing errors
readoutName: polyreactivity (PSR sort gate)

Here is how some sequences turned out for polyreactivity (PSR sort gate).
[[record]]
querysequence = "QVQLVDSGGGLVQAGGSLRLSCAASGSIFYQYAMGWYRQAPGKQRELVAAISRSGGSTYYADSVKGRFTISRDNAKNTVYLQMISLKPEDTAVYYCAARAVRAAYDYWGLGTQVTVSS"
observed = "low polyreactivity"

[[record]]
querysequence = "QVQLEESGGGLVQAGGSLRLSCAASGSIFRKYAMVSYRQAPGKERELVAAIRSSGGSTYYADSVKGRFTISRDNANNTVYLQMNSLKPEDTAVYYCAARYYRPSRYDYWGQGTQVTVSS"
observed = "high polyreactivity"

[[record]]
querysequence = "QVQLVESGGGLVQAGGSLRLSCAASGRTFGVYAMGWYRQAPGKERELVAAIRWSGGGTYYADSVKGRFTISRDNAKNTVYLQMISLKPEDTAVYYCAATFQNSPYTRYTDMYYWGQGTQVTVSS"
observed = "low polyreactivity"

[[record]]
querysequence = "QVQLVESGGGLVQAGGSLRLSCAASGITFLQYAVGWYRPAPGKERELVAVISRGSRTYYADSVKGRFTISRDNAKNTVYLQMNSLKPEDTAVYYCAAVRGLAVGYDYWGQGTQVTVSS"
observed = "high polyreactivity"


// below: polyreactivity (PSR sort gate) requested for another sequence
**Query** Answer with the recorded polyreactivity (PSR sort gate) for the sequence listed here: QVQLVESGGGLVQAGGSLRISCAASGSISVYNAMGWYRQAPGKERELVAAISWSGGRTSYADSVKGRFTISRDNAKKTVYLQMNSLKPEDTEVYYCAADELTVLWDEDYWGQGTQVTVSS
**Result** low polyreactivity

The measurements presented in this section are drawn from the nanobody polyreactivity screen of Harvey et al. (2022).
